- Experimental system: MALT1 (Homo sapiens)
- Sequence (Q9UDY8 1-824): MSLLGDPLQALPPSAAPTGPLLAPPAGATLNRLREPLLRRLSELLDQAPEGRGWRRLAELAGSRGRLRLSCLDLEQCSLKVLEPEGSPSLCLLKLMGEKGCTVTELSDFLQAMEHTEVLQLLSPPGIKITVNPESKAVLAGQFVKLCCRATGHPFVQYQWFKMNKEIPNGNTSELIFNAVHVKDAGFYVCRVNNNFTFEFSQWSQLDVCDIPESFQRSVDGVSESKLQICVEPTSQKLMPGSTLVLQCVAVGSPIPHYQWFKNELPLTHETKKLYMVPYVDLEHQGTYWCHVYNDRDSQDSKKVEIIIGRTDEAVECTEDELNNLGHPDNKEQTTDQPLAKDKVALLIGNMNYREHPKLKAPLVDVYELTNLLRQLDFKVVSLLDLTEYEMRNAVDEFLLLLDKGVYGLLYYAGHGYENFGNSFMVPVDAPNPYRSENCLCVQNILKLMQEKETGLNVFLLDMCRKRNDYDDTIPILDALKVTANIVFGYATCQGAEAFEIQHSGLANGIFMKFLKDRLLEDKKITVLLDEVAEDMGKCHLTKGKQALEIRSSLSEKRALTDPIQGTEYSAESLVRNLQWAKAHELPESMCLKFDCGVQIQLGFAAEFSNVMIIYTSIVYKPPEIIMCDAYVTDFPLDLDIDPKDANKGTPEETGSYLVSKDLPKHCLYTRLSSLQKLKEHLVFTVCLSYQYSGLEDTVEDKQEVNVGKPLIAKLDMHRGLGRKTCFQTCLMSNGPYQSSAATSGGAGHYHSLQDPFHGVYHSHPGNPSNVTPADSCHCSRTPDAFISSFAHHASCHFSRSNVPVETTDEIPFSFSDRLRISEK
- Procedure details: Kinetic assay of ACC fluorogenic substrates (kcat, Km, kcat/Km)
- Assay type: biochemical
- Run parameters: 37 °C; 50 mM HEPES, 100 mM NaCl, 0.9 M sodium citrate, 10 mM DTT, pH 7.5; substrate 3.90-150 μM; ACC fluorescence 355/460 nm; average of three measurements
Non-standard residues stand in square brackets, D forms with d. *: point of attachment. ACC = NC(=O)Cc1cc(=O)oc2cc(N*)ccc12; Abu = CC[C@H](N)C(=O)O
Rule: kcat below 0.1 s⁻¹ gives met, anything at or above gives not met.

Request: Find out if reported kcat for Ac-[dA]LVSR-{ACC} (SMILES CC(=O)N[C@H](C)C(=O)N[C@@H](CC(C)C)C(=O)N[C@H](C(=O)N[C@@H](CO)C(=O)N[C@@H](CCCNC(=N)N)C(=O)Nc1ccc2c(CC(N)=O)cc(=O)oc2c1)C(C)C) [Ac-D-Ala-LVSR-ACC] is less than 0.1 s⁻¹
Response: met

Request: Another substance to check: Ac-RLVSR-{ACC} (SMILES CC(=O)N[C@@H](CCCNC(=N)N)C(=O)N[C@@H](CC(C)C)C(=O)N[C@H](C(=O)N[C@@H](CO)C(=O)N[C@@H](CCCNC(=N)N)C(=O)Nc1ccc2c(CC(N)=O)cc(=O)oc2c1)C(C)C) [Ac-Arg-LVSR-ACC]
Response: not met

Request: Subsequent entry: Ac-ALVSR-{ACC} (SMILES CC(=O)N[C@@H](C)C(=O)N[C@@H](CC(C)C)C(=O)N[C@H](C(=O)N[C@@H](CO)C(=O)N[C@@H](CCCNC(=N)N)C(=O)Nc1ccc2c(CC(N)=O)cc(=O)oc2c1)C(C)C) [Ac-Ala-LVSR-ACC, reference compound]
Response: met

Request: Try this substance too: Ac-[Abu]LVSR-{ACC} (SMILES CC[C@H](NC(C)=O)C(=O)N[C@@H](CC(C)C)C(=O)N[C@H](C(=O)N[C@@H](CO)C(=O)N[C@@H](CCCNC(=N)N)C(=O)Nc1ccc2c(CC(N)=O)cc(=O)oc2c1)C(C)C) [Ac-Abu-LVSR-ACC]
Response: not met

Request: Now this one: Ac-TLVSR-{ACC} (SMILES CC(=O)N[C@H](C(=O)N[C@@H](CC(C)C)C(=O)N[C@H](C(=O)N[C@@H](CO)C(=O)N[C@@H](CCCNC(=N)N)C(=O)Nc1ccc2c(CC(N)=O)cc(=O)oc2c1)C(C)C)[C@@H](C)O) [Ac-Thr-LVSR-ACC]
Response: not met

Request: Try the substance Ac-[dV]LVSR-{ACC} (SMILES CC(=O)N[C@@H](C(=O)N[C@@H](CC(C)C)C(=O)N[C@H](C(=O)N[C@@H](CO)C(=O)N[C@@H](CCCNC(=N)N)C(=O)Nc1ccc2c(CC(N)=O)cc(=O)oc2c1)C(C)C)C(C)C) [Ac-D-Val-LVSR-ACC]
Response: not met

Request: And the next one, Ac-KLVSR-{ACC} (SMILES CC(=O)N[C@@H](CCCCN)C(=O)N[C@@H](CC(C)C)C(=O)N[C@H](C(=O)N[C@@H](CO)C(=O)N[C@@H](CCCNC(=N)N)C(=O)Nc1ccc2c(CC(N)=O)cc(=O)oc2c1)C(C)C) [Ac-Lys-LVSR-ACC] ?
Response: not met
